# Test system: SNB-75 CNS
# test: NCI-60 one-dose screen, 48 h (100 = growth as untreated, 0 = no growth, -100 = all killed)
# studyConditions: 10 µM unless noted
Compounds without any hit were thinned out: in the full panel of roughly 83,000, 20% have a hit.
propertyLabel: growth (%)
Answers are plain numbers, in %.

* COc1cc(Cn2c(SCC(=O)Nc3ccc(Cl)cc3)nc3ccccc3c2=O)cc(OC)c1OC | 27.1
* CCN1C(=O)N(CC)C2Nn3c(s/c(=C\c4cccc(F)c4)c3=O)=NC21 (stereo not given) | 6.29
* O=C(CSc1nc(-c2ccc(Cl)cc2)cn1-c1ccc(Cl)cc1)c1ccc(Br)cc1 | 44.4

Hi! Can you tell me growth for each of these compounds?
1. O=c1oc2cc(OS(=O)(=O)c3ccc(F)cc3)ccc2c2c1CCCCC2
2. COc1ccc(C(=O)c2cc(OC)c(OC)c(OC)c2)cc1/C=C/C(=O)c1ccc(O)cc1

Key:
1: 80.9; 2: 28.7

src = PubChem BioAssay (NCI)
